meta.source: PubChem BioAssay (NCI)

- Tested on: HOP-92 NSCLC
- Test name: NCI tumour cell line growth inhibition, 48 h
Overview of recorded GI50 for various compounds

{"Compound": "COc1cc2c(cc1OCCCCCCNC(=O)c1cc3ccccc3[nH]1)N=CC1CCCN1C2=O (stereo not given)", "GI50": "25.3 µM"}
{"Compound": "CC(=O)OCCC/C(=C\\c1ccc2ccccc2c1)[N+](=O)[O-]", "GI50": "1.44 µM"}
{"Compound": "NCCCn1c2c(c3ccc([N+](=O)[O-])cc3c1=O)C(=O)c1cc3c(cc1-2)OCO3", "GI50": "2.6 µM"}
{"Compound": "C/C1=C\\CC[C@@](C)(O)[C@H]2C[C@H](CC/C(C)=C/CC1)C1(CC1)C(=O)O2", "GI50": "16 µM"}

QUERY: Return GI50 measured with HOP-92 NSCLC given this compound: "C[C@@H]1CN(Cc2ccc(/C=C/c3n[nH]c4ccc5nc(-c6cn[nH]c6C(F)(F)F)c6c(c5c34)CCCC6)cc2)C[C@H](C)O1"
RESULT: 3.12 µM

====

- System: KM12 colon
- Test name: NCI tumour cell line growth inhibition, 48 h; in the data active = GI50 below about 0.43 µM; inactive = the rest
Hi there, use one of these labels in your reply, thanks! active, inactive

Example entries and their recorded answers appear below.
{"Test smiles": "O=C(c1ccc(O)cc1)c1ccc(C(=O)c2ccc(O)cc2)cc1", "Target system": "KM12 colon", "Category": "inactive"}
{"Test smiles": "COc1ccc2nc(-c3ccccc3)cc(Nc3ccc(/C(C)=N/O)cc3)c2c1", "Target system": "KM12 colon", "Category": "inactive"}
{"Test smiles": "CC(=O)NNC(=O)c1nn(-c2ccc(Cl)cc2)cc1OC(C)=O", "Target system": "KM12 colon", "Category": "inactive"}
{"Test smiles": "Cc1cc[c-]cc1.Fc1c[c-]c(-c2ccccn2)c(F)c1.N#CCC[PH+](CCC#N)c1ccccc1.[Pt+2]", "Target system": "KM12 colon", "Category": "inactive"}
{"Test smiles": "CC(C)(C)c1ccc(C(=O)N/N=C/c2ccc(O)cc2O)cc1", "Target system": "KM12 colon", "Category": "active"}

QUERY: Assay outcome for "c1ccc(-c2n(Cc3ccc4ccccc4n3)c3ccccc3[n+]2Cc2ccc3ccccc3n2)cc1" : what was it?
RESULT: active

====

- System: TK-10 renal
- Test name: NCI tumour cell line growth inhibition, 48 h
Test readout: TGI (µM)
Numeric only. Scale: µM

Example entries begin here.
{"Molecule": "Cn1cc2ccccc2c1-c1nc(F)nc(Oc2ccc3c(c2)CC[C@@H]2C3CC[C@]3(C)C(O)CCC23)n1 (some centres not stated)", "TGI / µM": 31.7}
{"Molecule": "O=C(/C=C/c1cccs1)c1ccsc1", "TGI / µM": 97.6}

QUERY: State the recorded TGI for this entry: "CSc1nc(Cl)c(Br)c(Nc2c[nH]c(=O)[nH]c2=O)n1"
RESULT: 40

====

- System: ACHN renal
- Test name: NCI tumour cell line growth inhibition, 48 h
Test readout: TGI

Illustrative cases are given below, each with its answer.
{"Compound": "COc1cc2c(cc1OCCCCC(=O)Nc1ccc(-c3nc4ccccc4s3)cc1)N=C[C@@H]1CCCN1C2=O", "Readout value": "8.53 µM"}
{"Compound": "O=C1c2c(c3c4ccccc4n4c3c3c2c2ccccc2n3C/C=C\\C4)C(=O)N1Cc1ccccc1", "Readout value": "> 100 µM"}
{"Compound": "O=c1[nH]c(=O)n(C2CC(O)C(CO)O2)cc1NN=NCc1ccccc1 (centres undefined)", "Readout value": "> 100 µM"}

QUERY: State the recorded TGI for this entry: C=CCC1NCCC2=C1C(S(=O)(=O)c1ccc(C)cc1)c1ccccc12 (centres undefined)
RESULT: 24.3 µM

QUERY: What do you have for C[C@H](CC[C@@H](O)C(C)(C)O)[C@H]1CC[C@@]2(C)[C@@H]3CC=C4[C@@H](CC[C@H](OC5OC(CO)C(O)C(O)C5O)C4(C)C)[C@]3(C)C(=O)C[C@]12C (some centres undefined) ?
RESULT: 98.5 µM

QUERY: Could you do the same for "Cc1c(N2C(=O)/C(=C\c3ccc(O)cc3)N=C2c2ccccc2)c(=O)n(-c2ccccc2)n1C" , please?
RESULT: > 100 µM

QUERY: // next record "COc1cc(C/C=C/c2ccccc2)c(OC)cc1O"
RESULT: 52.7 µM

QUERY: Proceed to CSc1nc2c(nc(N)n2C2OCC(O)C(O)C2O)c(=O)[nH]1 (centres undefined)
RESULT: > 100 µM

QUERY: Same question, "CC1=C(C(=O)Nc2ccccc2C)C(c2ccc(N(C)C)cc2)C(C(=O)Nc2ccccc2C)=C(C)N1" this time
RESULT: > 100 µM

QUERY: Next compound up: "CC(C)(C)c1ccc(C(=O)N/N=C/c2ccc(O)cc2O)cc1"
RESULT: 7.74 µM

QUERY: Now consider "COc1cc(NCC(C#N)C#N)ccc1N=Nc1ccc([N+](=O)[O-])cc1" and answer again.
RESULT: > 100 µM

QUERY: Now consider Clc1ccc(OCC2NC3C=CC32)cn1 (centres undefined) .
RESULT: > 100 µM

QUERY: // next record Cn1cc2ccccc2c1-c1nc(F)nc(Oc2ccc3c(c2)CC[C@@H]2C3CC[C@]3(C)C(O)CCC23)n1 (some centres undefined)
RESULT: 34.1 µM

QUERY: Then what about the compound "NCCCCNCCCN" ?
RESULT: > 100 µM

QUERY: Can you check "COc1ccc2oc(-c3ccncc3)cc(=O)c2c1" next?
RESULT: > 100 µM
